All values here come from patent US20220017589A1.

Examples of binders with documented GDF15 activity (EC50, pM) follow.
Assayed Target: T1, human GFRAL (human, UniProt Q6UXV0 19-394)
T1 sequence (looked up): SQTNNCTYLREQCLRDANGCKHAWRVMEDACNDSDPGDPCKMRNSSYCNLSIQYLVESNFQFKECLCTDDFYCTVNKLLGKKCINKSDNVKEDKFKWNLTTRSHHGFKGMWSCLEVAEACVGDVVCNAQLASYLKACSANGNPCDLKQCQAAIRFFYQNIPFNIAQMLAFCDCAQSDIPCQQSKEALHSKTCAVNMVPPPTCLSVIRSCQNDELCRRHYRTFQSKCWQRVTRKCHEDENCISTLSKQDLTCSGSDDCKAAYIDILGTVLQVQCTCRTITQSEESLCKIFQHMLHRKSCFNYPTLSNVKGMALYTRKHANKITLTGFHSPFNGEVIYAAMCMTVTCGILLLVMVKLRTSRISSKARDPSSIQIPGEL
Test Protocol: cell-based or functional assay
Please respond with the number in pM and leave the unit unwritten.

>>> experimental_value("MLC104 (ligand, Moiety A (HOOC-(CH2)16-CO-gGlu-2XADO) on 76K of Linker (107K of fusion polypeptide)) HGEGTFTSDVSSYLEEQAAREFIAWLVRGGGGQEPGAQPGQEPGAQPGQEPGAQPGQEPGAQPGQEPGAQPGQEPGAQPGAQPGAQPGAQPGAQPGAQPGAQPGAQKGAQPARQGDHCPLGPGRCCRLHTVRASLEDLGWADWVLSPREVQVTMCIGACPSQFRAANLHAQIKTSLHRLRPDTVPAPCCVPASYNPMVLIQRTDTGVSLQTYDDLLARDCHCI")
79.4

Proceed to the following item.
Q: Hello, please tell me recorded GDF15 activity (EC50, pM) for this one: MLC022 (ligand) HGEGTFTSDVSSYLEEQAAKEFIAWLVRGGGGQEPGQEPGQEPGQEPGQEPGQEPARQGDHCPLGPGRCCRLHTVRASLEDLGWADWVLSPREVQVTMCIGACPSQFRAANLHAQIKTSLHRLKPDTVPAPCCVPASYNPMVLIQKTDTGVSLQTYDDLLAKDCHCI
Result: 59.2
